- TARGET_OR_SYSTEM: Human DR5 (Homo sapiens, UniProt O14763)
- MEASUREMENT_DESCRIPTION: Binding affinity of antibody to human DR5 (BIAcore, CM5 chip)
- CONDITIONS_USED: association rate, Human DR5, 1:1 Langmuir binding model
- Protocol: In order to measure affinity, human DR5 was coupled to carboxylated dextran biosensor chips (CM5, GE) according to the manufacturer's instruction. Association and dissociation rates were assessed by injecting IgG proteins that were 2-fold serially diluted to 5 nM, 2.5 nM, 1.25 nM, 0.625 nM, 0.313 nM, and 0.156 nM. […]
REPORTED_PROPERTY: Ka(1/Ms)

>>> assay_value("DA33: humanized or deimmunized variant of parental clone D0; CDRs SEQ ID NO 1, 2, 7 / 4, 10, 13 (antibody, V domains shown) VH: AVTLDESGGGLQTPGGGLSLVCKGSGFTFSSFNMLWVRQAPGKGLEWVAGIGKSDRYTGYGSAVKGRATISRDDGQSTARLQLNNLRAEDTAVYYCVKDAGSGCGSGGWTGACIDTWGHGTEVIVSS VL: LTQPSSVSANLGGTVEITCSGGDSYAGSYYYGWYQQKAPGSAPVTVIYNNNNRPSNIPSRFSGSTSGSTATLTITGVQAEDEATYFCGSRDSSYVGIFGAGTTLTVL")
"1.24 × 10^06 1/Ms"
